- assay system: MMP13 (Homo sapiens (Human), UniProt P45452)
pIC50: −log10 of the molar value.
Rule: pIC50 of 9 or more gives criterion met; anything lower gives criterion not met.

Qu. Is the recorded value of pIC50 equal to or greater than 9 for this molecule? CCOC(=O)c1cc2cc(-c3ccnc(C(=O)NCc4ccc(=O)[nH]c4)c3)ccc2[nH]1
Ans. criterion not met

Qu. # iterate: Cc1noc(-c2cc3cc(-c4cc(C(=O)NCc5ccc(C(=O)O)cc5)ncc4C)ccc3[nH]2)n1
Ans. criterion met

Qu. What would you report for CCNC(=O)c1nc(-c2ccc3[nH]c(-c4nc(C)no4)cc3c2)c(C)[nH]1 ?
Ans. criterion not met

Qu. Cc1noc(-c2cc3cc(-c4cc(C(=O)NCc5ccc(C(=O)O)cc5)nn4C)ccc3[nH]2)n1 , same question.
Ans. criterion met

Qu. Entry Cc1noc(-c2cc3cc(-c4nc(C(=O)NCc5ccccn5)[nH]c4C)ccc3[nH]2)n1 please
Ans. criterion not met

Qu. What about this molecule? O=C(NCc1ccncc1)c1cc(-c2ccc3[nH]c(-c4ccncc4)cc3c2)ccn1
Ans. criterion not met

Qu. Further, for Cc1noc(-c2cc3cc(-c4cc(C(=O)NCc5cc(C)on5)nn4C)ccc3[nH]2)n1 ?
Ans. criterion not met

Qu. Input Cc1noc(-c2cc3cc(-c4nc(C(=O)NCc5ccc(N)nc5)[nH]c4C)ccc3[nH]2)n1
Ans. criterion not met

Qu. For Cc1noc(-c2cc3cc(-c4nc(C(=O)NCc5cnn(C)c5)[nH]c4C)ccc3[nH]2)n1 then?
Ans. criterion met
